The reported measurements were obtained from PubChem BioAssay (NCI).

Test system: CCRF-CEM leukemia
Method: NCI tumour cell line growth inhibition, 48 h
Exercise: for every item that follows, state its recorded TGI.

For the molecule COc1cc2c(cc1OC)C1(c3ccc(Cl)cc3)ON=C(c3ccccc3)N1CS2 (configuration not stated) , report TGI.
> 100 µM

For the molecule Cc1ccc2nc(NC(=O)/C(Cc3nc4ccc(Cl)cc4[nH]c3=O)=N\NC(C)(C)C)sc2c1 , report TGI.
> 100 µM

For the molecule O=[As](O)(O)c1ccc(N=Nc2ccc(O)cc2)cc1 , report TGI.
> 100 µM

For the molecule CNc1ccc(N)cc1C(=O)N1CCC[C@H]1CO , report TGI.
> 100 µM

For the molecule CN(C)c1ccc(N=Nc2ccncc2)cc1 , report TGI.
> 100 µM

For the molecule CCCCCCN(N)C(=O)CC#N , report TGI.
> 100 µM

For the molecule Cc1cc(N(CCC#N)CCC#N)ccc1/C=C1/N=C(c2ccccc2)N(N)C1=O , report TGI.
> 100 µM

For the molecule Cc1cccc(NC(=O)c2sc3nc4c(cc3c2N)CN(Cc2ccccc2)CC4)c1C , report TGI.
> 50 µM

For the molecule CC1(C)CCC[C@]2(C)[C@@H](C=O)C(C=O)=CC[C@@H]12 , report TGI.
80.1 µM

For the molecule OC1(c2ccccc2)CSC2=Nc3ccccc3C3CCN1N23 (configuration not stated) , report TGI.
94.1 µM

For the molecule O=C(O)COc1c(Cl)cc(Cl)c2cccnc12 , report TGI.
> 100 µM

For the molecule CN(C)CC1CCCC1=O (configuration not stated) , report TGI.
0.533 µM
